Give measured IC50 for each item. Keep answers brief.
# Target system: PAF receptors (Oryctolagus cuniculus, UniProt G1TEI7)
# Sequence (G1TEI7 1-342): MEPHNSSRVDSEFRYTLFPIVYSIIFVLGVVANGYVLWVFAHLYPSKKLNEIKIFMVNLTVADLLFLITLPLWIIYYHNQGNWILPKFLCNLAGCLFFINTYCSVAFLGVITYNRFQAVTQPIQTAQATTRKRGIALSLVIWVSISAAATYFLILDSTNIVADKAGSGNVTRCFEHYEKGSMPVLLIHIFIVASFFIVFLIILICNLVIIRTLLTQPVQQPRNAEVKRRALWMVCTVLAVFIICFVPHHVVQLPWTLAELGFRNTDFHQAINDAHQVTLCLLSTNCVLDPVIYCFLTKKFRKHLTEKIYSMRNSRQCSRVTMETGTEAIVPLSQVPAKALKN
One number for each entry, in nM.

COc1cc(CCC2CN(C(=O)c3cc(OC)c(OC)c(OC)c3)CCN2C(=O)c2cc(OC)c(OC)c(OC)c2)cc(OC)c1OC (stereo not shown) ... 38
COc1cc(C(=O)N2CCN(C(=O)c3cc(OC)c(OC)c(OC)c3)C(C)C2)cc(OC)c1OC (stereo not shown) ... 670
COc1ccc(CCC2CN(C(=O)c3cc(OC)c(OC)c(OC)c3)CCN2C(=O)c2cc(OC)c(OC)c(OC)c2)cc1 (stereo not shown) ... 60
COc1cc(C(=O)N2CCN(C(=O)c3cc(OC)c(OC)c(OC)c3)C(CCC(C)(C)C)C2)cc(OC)c1OC (stereo not shown) ... 250
COc1cc(C(=O)N2CCN(C(=O)c3cc(OC)c(OC)c(OC)c3)C(CCc3ccccc3)C2)cc(OC)c1OC (stereo not shown) ... 4100
COc1cc(C(=O)N2CCN(C(=O)c3cc(OC)c(OC)c(OC)c3)C(CCc3cccc(Cl)c3Cl)C2)cc(OC)c1OC (stereo not shown) ... 680

Now consider the entry below.
Query: Reported IC50 for PAF receptors (Oryctolagus cuniculus, UniProt G1TEI7), given COc1cc(C(=O)N2CCN(C(=O)c3cc(OC)c(OC)c(OC)c3)C(CCC3CCCCC3)C2)cc(OC)c1OC (stereo not shown) ?
Result: 740
